target: mammalian ribonucleotide reductase (Bos taurus); experiment: Peptide inhibition of mammalian ribonucleotide reductase activity; type: biochemical; conditions: Table 8
Sequence (Q32LP1 1-791): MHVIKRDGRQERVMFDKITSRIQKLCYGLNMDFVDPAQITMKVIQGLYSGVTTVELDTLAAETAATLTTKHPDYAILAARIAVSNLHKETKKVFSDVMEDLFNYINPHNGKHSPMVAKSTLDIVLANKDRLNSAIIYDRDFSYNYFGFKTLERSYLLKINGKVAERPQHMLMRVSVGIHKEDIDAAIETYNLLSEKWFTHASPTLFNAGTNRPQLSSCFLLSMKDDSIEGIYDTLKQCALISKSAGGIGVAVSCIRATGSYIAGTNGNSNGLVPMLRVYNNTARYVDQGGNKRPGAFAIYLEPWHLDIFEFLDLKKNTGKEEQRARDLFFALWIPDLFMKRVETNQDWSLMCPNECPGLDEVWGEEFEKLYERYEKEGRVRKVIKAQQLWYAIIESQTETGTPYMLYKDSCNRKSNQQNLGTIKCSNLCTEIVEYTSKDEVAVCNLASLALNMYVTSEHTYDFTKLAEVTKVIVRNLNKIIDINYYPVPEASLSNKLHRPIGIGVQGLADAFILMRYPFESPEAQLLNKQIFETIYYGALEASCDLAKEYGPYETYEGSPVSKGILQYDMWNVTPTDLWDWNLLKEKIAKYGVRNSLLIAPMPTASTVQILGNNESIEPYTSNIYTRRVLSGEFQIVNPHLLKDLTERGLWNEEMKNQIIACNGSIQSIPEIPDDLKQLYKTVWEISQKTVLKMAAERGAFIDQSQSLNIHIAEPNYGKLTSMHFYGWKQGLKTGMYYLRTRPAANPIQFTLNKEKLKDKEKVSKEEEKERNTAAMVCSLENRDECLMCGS
Ends that are not written are not given here.
PROPERTY: Fold decrease in RI relative to N-AcFTLDADF

[[record]]
substance = "Acetyl-(p-azido-Phe)-Thr-Leu-Asp-Ala-Asp-Phe [Ac-F(4'-N3)TLDADF]"
assay_system = "mammalian ribonucleotide reductase (Bos taurus)"
observed_measurement = "five to ten"

[[record]]
substance = "Acetyl-(p-amino-Phe)-Thr-Leu-Asp-Ala-Asp-Phe [Ac-F(4'-NH2)TLDADF]"
assay_system = "mammalian ribonucleotide reductase (Bos taurus)"
observed_measurement = "five to ten"

[[record]]
substance = "Ac-FTLDAEF [Ac-FTLDAEF]"
assay_system = "mammalian ribonucleotide reductase (Bos taurus)"
observed_measurement = "> 50 fold"

[[record]]
substance = "Ac-YTLDADF [Ac-YTLDADF]"
assay_system = "mammalian ribonucleotide reductase (Bos taurus)"
observed_measurement = "five to ten"

[[record]]
substance = "Ac-FTLAADF [Ac-FTLAADF]"
assay_system = "mammalian ribonucleotide reductase (Bos taurus)"
observed_measurement = "> 30 fold"


----------
target: mouse Y177F-R2 with recombinant mouse R1 (Mus musculus, UniProt P07742+P11157, Y177F); test: Inhibition of Y177F-R2-dependent RR activity; details: dATP in presence of relatively high ATP
Sequence (P07742 whole entry): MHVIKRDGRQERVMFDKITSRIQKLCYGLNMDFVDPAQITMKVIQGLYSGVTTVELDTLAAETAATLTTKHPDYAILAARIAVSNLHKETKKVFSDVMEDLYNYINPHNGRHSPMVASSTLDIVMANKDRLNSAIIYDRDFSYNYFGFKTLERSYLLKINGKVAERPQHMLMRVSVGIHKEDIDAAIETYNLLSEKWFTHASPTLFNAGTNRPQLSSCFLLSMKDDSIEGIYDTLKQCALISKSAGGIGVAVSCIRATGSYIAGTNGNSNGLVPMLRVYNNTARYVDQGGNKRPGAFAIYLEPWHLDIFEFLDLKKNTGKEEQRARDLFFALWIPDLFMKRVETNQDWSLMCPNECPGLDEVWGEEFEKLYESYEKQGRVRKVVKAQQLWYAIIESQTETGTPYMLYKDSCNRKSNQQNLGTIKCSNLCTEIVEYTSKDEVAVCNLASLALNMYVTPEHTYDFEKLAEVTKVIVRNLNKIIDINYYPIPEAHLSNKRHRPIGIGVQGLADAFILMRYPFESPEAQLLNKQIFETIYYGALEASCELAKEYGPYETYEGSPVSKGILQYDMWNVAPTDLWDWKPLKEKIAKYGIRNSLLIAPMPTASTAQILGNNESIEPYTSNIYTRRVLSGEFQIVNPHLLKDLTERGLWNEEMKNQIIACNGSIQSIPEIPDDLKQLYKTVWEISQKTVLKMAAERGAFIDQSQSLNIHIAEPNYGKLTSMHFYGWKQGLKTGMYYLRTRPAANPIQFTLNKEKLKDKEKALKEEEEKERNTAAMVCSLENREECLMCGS
Sequence (P11157 whole entry Y177F): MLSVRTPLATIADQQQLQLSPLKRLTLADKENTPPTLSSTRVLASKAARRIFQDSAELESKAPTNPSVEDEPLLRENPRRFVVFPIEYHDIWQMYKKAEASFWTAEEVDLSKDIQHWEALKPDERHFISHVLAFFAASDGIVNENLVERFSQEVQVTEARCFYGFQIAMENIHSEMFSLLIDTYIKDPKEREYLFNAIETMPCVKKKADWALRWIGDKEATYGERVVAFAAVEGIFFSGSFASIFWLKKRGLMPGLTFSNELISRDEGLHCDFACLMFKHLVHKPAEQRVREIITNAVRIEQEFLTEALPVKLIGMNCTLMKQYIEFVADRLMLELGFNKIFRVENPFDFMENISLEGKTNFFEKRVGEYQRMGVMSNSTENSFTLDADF
pIC50: −log10 of the molar value.
PROPERTY: pIC50

[[record]]
compound = "Nc1ncnc2c1ncn2[C@H]1C[C@H](O)[C@@H](COP(=O)(O)OP(=O)(O)OP(=O)(O)O)O1 [dATP]"
observed_measurement = 4.70


----------
biological target: mammalian ribonucleotide reductase (Bos taurus); test: Peptide inhibition of mammalian ribonucleotide reductase activity; type: biochemical; conditions: Table 9; read-out: IC50, Mammalian RR
Ends that are not written are not given here.
PROPERTY: IC50 (µM)

[[record]]
substance = "Ac-FTFNEDF [AcFTFNEDF]"
observed_measurement = 100


----------
target: S. cerevisiae ribonucleotide reductase (Saccharomyces cerevisiae, UniProt P21524); assay: Peptide inhibition of S. cerevisiae ribonucleotide reductase activity; assay type: biochemical; details: Table 9; read-out: IC50, Yeast RR
Sequence (P21524 whole entry): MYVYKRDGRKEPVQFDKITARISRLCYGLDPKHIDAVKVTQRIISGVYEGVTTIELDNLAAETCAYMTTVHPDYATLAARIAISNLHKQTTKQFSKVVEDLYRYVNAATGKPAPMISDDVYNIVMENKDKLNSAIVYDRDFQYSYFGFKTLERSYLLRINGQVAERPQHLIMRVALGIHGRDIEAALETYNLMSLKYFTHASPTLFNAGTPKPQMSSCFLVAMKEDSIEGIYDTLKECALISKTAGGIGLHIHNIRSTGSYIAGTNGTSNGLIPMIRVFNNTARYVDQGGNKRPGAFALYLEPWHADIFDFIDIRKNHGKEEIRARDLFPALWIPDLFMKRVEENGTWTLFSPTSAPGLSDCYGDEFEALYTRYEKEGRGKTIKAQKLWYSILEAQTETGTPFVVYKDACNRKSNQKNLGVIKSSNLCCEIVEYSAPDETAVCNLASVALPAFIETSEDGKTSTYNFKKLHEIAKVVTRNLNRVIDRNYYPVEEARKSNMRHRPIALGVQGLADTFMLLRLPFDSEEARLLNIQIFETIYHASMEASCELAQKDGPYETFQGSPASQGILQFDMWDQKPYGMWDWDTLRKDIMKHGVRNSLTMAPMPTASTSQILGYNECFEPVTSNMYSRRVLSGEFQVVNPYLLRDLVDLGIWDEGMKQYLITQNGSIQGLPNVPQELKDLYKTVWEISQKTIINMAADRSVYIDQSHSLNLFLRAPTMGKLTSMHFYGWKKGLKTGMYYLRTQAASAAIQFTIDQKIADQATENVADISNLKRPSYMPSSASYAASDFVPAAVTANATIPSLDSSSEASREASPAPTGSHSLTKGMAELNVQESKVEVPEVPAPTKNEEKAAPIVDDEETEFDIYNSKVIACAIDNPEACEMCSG
Ends that are not written are not given here.
PROPERTY: IC50 (µM)

[[record]]
substance = "Ac-TFNEDF [AcTFNEDF]"
property = "IC50"
unit_of_measurement = "µM"
observed_measurement = 600


----------
molecular target: mammalian ribonucleotide reductase (Bos taurus); experiment: Peptide inhibition of mammalian ribonucleotide reductase activity; assay type: biochemical; details: Table 8; Dixon plots of 4-6 concentration points; ranges are two independent determinations; read-out: IC50
pIC50: −log10 of the molar value. Ends that are not written are not given here.
As shown below, each of these substances has a reported pIC50 value.
PROPERTY: pIC50

[[record]]
substance = "Ac-FTLNADF [Ac-FTLNADF, Acetyl-Phe-Thr-Leu-Asn-Ala-Asp-Phe]"
observed_measurement = "4.54 to 4.60"

[[record]]
substance = "FTLDADF [FTLDADF, Phe-Thr-Leu-Asp-Ala-Asp-Phe]"
observed_measurement = "< 3.40"

[[record]]
substance = "SFTLDADF"
observed_measurement = 4.10

[[record]]
substance = "Ac-FTLDADF [Ac-FTLDADF, Acetyl-Phe-Thr-Leu-Asp-Ala-Asp-Phe]"
observed_measurement = "4.70 to 5.10"

[[record]]
substance = "Ac-FLDADF [Ac-F-LDADF]"
observed_measurement = 3.39

[[record]]
substance = "Ac-FALDADF [Ac-FALDADF, Acetyl-Phe-Ala-Leu-Asp-Ala-Asp-Phe]"
observed_measurement = "4.40 to 4.46"

[[record]]
substance = "Ac-NSFTLDADF"
observed_measurement = "4.82 to 5.05"


----------
target: mammalian ribonucleotide reductase (Bos taurus); assay: Peptide inhibition of mammalian ribonucleotide reductase activity; type: biochemical; conditions: Table 8; mean and average deviation of 2-3 determinations, others single
Ends that are not written are not given here.
Labels assigned by % RI (relative inhibitory potency, (IC50 AcFTLDADF)/(IC50 peptide analog)) range: range A = under 5%, range B = from 5% up to 20%, range C = 20% and over

[[record]]
substance = "Ac-FTLDLDF [Ac-FTLDLDF]"
qualitative_label = "range C"

[[record]]
substance = "Ac-SFTLDADF"
qualitative_label = "range C"

[[record]]
substance = "Ac-FTVDADF [Ac-FTVDADF]"
qualitative_label = "range C"

[[record]]
substance = "Ac-FTFDADF [Ac-FTFDADF]"
qualitative_label = "range B"

[[record]]
substance = "Acetyl-(p-amino-Phe)-Thr-Leu-Asp-Ala-Asp-Phe [Ac-F(4'-NH2)TLDADF]"
qualitative_label = "range B"

[[record]]
substance = "Ac-FTLDADFAA"
qualitative_label = "range A"

[[record]]
substance = "Ac-FTLDAEF [Ac-FTLDAEF]"
qualitative_label = "range A"

[[record]]
substance = "Ac-FTLDANF [Ac-FTLDANF]"
qualitative_label = "range C"

[[record]]
substance = "Ac-YTLDADF [Ac-YTLDADF]"
qualitative_label = "range B"

[[record]]
substance = "Ac-FTLAADF [Ac-FTLAADF]"
qualitative_label = "range A"

[[record]]
substance = "Acetyl-(p-azido-Phe)-Thr-Leu-Asp-Ala-Asp-Phe [Ac-F(4'-N3)TLDADF]"
qualitative_label = "range B"

